- System: ACHN renal
- ASSAY_REMARKS: NCI tumour cell line growth inhibition, 48 h; in the data active = GI50 below about 0.43 µM; inactive = the rest
Would you mind answering with one of these outcomes? 1 (yes) for active, 0 (no) for inactive

Tell me the recorded outcome of this test for `COc1cc2c(cc1OCCCCOc1cc3c(cc1OC)C(=O)N1CCC[C@H]1CN3)N=C[C@@H]1CCCN1C2=O` .
0 (no)

What outcome does the record of this test show for CC(C)CC(CC1=CCC2CC1C2(C)C)C1=C(O)C(C)(C)C(=O)C(C)(C)C1=O (centres undefined) ?
1 (yes)

Recorded call for `Cn1c2c(cc(S(=O)(=O)c3ccccc3)c1=O)CCc1c-2cnn1-c1ccc(Cl)cc1` ?
0 (no)

Which result was noted for this compound in the test: `O[C@H]1CO[C@H]2[C@@H]1OC[C@@H]2Oc1ccc(Nc2ccnc(Nc3ccc(O[C@H]4CO[C@H]5[C@@H]4OC[C@@H]5O)c(Cl)c3)n2)cc1Cl`
0 (no)
